Biological target: androgen receptor (AR) (Homo sapiens)
Sequence (P10275 whole entry): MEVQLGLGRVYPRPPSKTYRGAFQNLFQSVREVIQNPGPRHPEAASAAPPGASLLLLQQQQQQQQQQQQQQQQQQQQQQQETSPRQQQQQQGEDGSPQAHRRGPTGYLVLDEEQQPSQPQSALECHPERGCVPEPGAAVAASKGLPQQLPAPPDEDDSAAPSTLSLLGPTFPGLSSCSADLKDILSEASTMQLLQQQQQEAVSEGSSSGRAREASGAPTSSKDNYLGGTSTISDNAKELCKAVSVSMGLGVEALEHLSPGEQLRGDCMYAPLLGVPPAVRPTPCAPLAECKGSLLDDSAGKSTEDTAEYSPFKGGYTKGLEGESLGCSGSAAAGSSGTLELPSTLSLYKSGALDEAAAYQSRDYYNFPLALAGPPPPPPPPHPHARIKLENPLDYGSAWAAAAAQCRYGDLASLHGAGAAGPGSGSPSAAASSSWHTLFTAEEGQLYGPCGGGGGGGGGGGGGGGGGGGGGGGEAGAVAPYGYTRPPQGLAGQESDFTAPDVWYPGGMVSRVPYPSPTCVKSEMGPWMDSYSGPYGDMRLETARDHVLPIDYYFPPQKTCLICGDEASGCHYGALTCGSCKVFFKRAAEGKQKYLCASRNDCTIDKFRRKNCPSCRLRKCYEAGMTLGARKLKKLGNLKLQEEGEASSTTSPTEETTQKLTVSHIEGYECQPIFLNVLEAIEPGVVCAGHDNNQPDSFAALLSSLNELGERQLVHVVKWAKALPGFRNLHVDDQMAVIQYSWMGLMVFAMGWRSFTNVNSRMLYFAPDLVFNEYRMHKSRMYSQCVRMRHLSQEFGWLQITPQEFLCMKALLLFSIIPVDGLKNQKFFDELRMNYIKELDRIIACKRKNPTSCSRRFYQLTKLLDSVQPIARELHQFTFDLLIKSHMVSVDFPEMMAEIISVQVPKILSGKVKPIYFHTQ
Assay: Degradation of androgen receptor (AR) protein in VCaP cells by ELISA
Assay type: cell-based
Settings: VCaP, AR degradation, VCaP cells, 16 h, ELISA, Table 3-1; read-out: Dmax (%)
Here the recorded Dmax is given for each entry.

Known results for compounds:
N#Cc1ccc(O[C@H]2CC[C@H](NC(=O)c3ncc(N4CCC(CN5CCC6(CC5)CN(c5ccc7c(c5)C(=O)N(C5CCC(=O)NC5=O)C7=O)C6)CC4)cn3)CC2)cc1Cl (stereo partly drawn) [Compound 135]; < 40%
N#Cc1ccc(O[C@H]2CC[C@H](NC(=O)c3ccc(N4CCC(CN5CCC6(CC5)CN(c5cc7c(cc5F)C(=O)N(C5CCC(=O)NC5=O)C7=O)C6)CC4)cc3)CC2)cc1Cl (stereo partly drawn) [Compound 191]; > 80%

**Q:** Quick one: give measured Dmax for N#Cc1ccc(O[C@H]2CC[C@H](NC(=O)c3ccc(N4CC5(CCN(CC6CCN(c7ccc8c(c7)C(=O)N(C7CCC(=O)NC7=O)C8=O)CC6)CC5)C4)nn3)CC2)cc1Cl (stereo partly drawn) [Compound 282]
**A:** > 80%

Reference for the values: patent US20230091225A1
